Test system: HIV-1 replication in H9 cells
Experiment: HIV-1 replication inhibition in acutely infected H9 lymphocytes (p24 antigen ELISA)
Type: cell-based, HIV-1 (IIIB strain)
Conditions: Human immunodeficiency virus 1, H9, Table 17; acutely infected H9 lymphocytes

# molecule, measurementUnits, EC50
rows = [
    ("Cc1cn([C@H]2C[C@H](N=[N+]=[N-])[C@@H](CO)O2)c(=O)[nH]c1=O [AZT, azidothymidine, reference compound]", "nM", 150),
]

* * *

System: uninfected H9 cells
Test: Toxicity to uninfected H9 cells (cell growth)
Type: cell-based
Settings: Homo sapiens, H9, Table 3, H9 lymphocytes
propertyLabel: IC50 (mM)

# compound, testSystem, propertyLabel, recordedResult
records = [
    ("Cc1cn([C@H]2C[C@H](N=[N+]=[N-])[C@@H](CO)O2)c(=O)[nH]c1=O [AZT, azidothymidine, reference compound]", "uninfected H9 cells", "IC50", 2),
]
